Tested on: blackgrass (Alopecurus myosuroides)
Test: Test C greenhouse herbicide test, pre- and postemergence
Format: in vivo
Settings: Postemergence, 250 g ai/ha; scale 0 to 100, 0 no effect, 100 complete control; 13 to 15 d
Listed next: entries and their corresponding Plant response rating, Blackgrass.

Compound structure string | Plant response rating, Blackgrass
CC(=O)Oc1c(C)nn(C)c(=O)c1-c1c(C)sc2ccc(C(F)(F)F)cc12 | 45
CCCC(=O)Oc1c(C)nn(C)c(=O)c1-c1c(C)sc2ccc(C)cc12 | 60
Cc1ccc2sc(C)c(-c3c(OC(=O)C(C)(C)C)c(C)nn(C)c3=O)c2c1 | 75
CCC(=O)Oc1c(C)nn(C)c(=O)c1-c1ccc(F)c2ccccc12 | 60
Cc1ccc2ccccc2c1-c1c(O)c(I)nn(C)c1=O | 75
